The measurements presented in this section are drawn from PubChem BioAssay (EPA / NIEHS).

- system_name: rat Acetylcholinesterase (AChE), Ache (gene 83817)
- protocol_text: NVS_ENZ_rAChE: NovaScreen (NVS) Enzymatic Assay for rat Acetylcholinesterase (AChE) (AID 2283233)
Records with an inconclusive call do not appear. The source made the active and inactive calls. Rule for the calls: active = hit-call score of the fitted dose curve at least 0.9, where 1 is the maximum; inconclusive = response in the unintended direction; inactive = score below 0.9.
Pick one: yes (1) for active, no (0) for inactive

Field: example entries. Status: answers known.
>>> qualitative_label("S=C([S-])NCCNC(=S)[S-].[Mn+2]")
"no (0)"
>>> qualitative_label("CNS(=O)(=O)c1cc(C(=O)N2CCC(CCN3C4CCC3CC(n3c(C)nc5ccccc53)C4)(c3cccc(F)c3)CC2)c(Cl)cc1F (stereo unspecified)")
"no (0)"
>>> qualitative_label("N=C(N)c1ccc(OCCCCCOc2ccc(C(=N)N)cc2)cc1")
"yes (1)"
>>> qualitative_label("NC(=O)N(O)[C@@H]1C=C[C@H](Oc2cccc(Oc3ccc(F)cc3)c2)C1")
"no (0)"
>>> qualitative_label("Cc1cc(CCN2CCN(c3nsc4ccccc34)CC2)cc2c1NC(=O)CC2(C)C")
"no (0)"
>>> qualitative_label("CC(C)=CCC/C(C)=C\\CO")
"no (0)"
>>> qualitative_label("CCCCc1oc2ccccc2c1C(=O)c1cc(I)c(OCCN(CC)CC)c(I)c1")
"no (0)"
>>> qualitative_label("Clc1cc(Cl)c2c(c1)N=C1CCCCCN1C2")
"yes (1)"

Data request: # lookup: test call for CCCCCCCC(=O)O
Data returned: no (0)

Data request: Could you please tell me the result logged for O=C1c2c(O)ccc(Nc3ccc(CCO)cc3)c2C(=O)c2c([N+](=O)[O-])ccc(O)c21 in this assay?
Data returned: yes (1)

Data request: // return assay outcome for COCCOc1cc2cc(C(=O)NC3CCN(C(C)C)CC3)n(CC(=O)Nc3ccc(Cl)cn3)c2cn1
Data returned: yes (1)

---

- protocol_text: CCTE_Mundy_HCI_Cortical_Synap_Neur_Matur_NeuronCount: CCTE's Synaptogenesis and Neurite Maturation Assay in rat cortical cells for Neuron Count, Mundy Lab (AID 2284242)
Records with an inconclusive call do not appear. The source made the active and inactive calls. The calls were made as follows: active = hit-call score of the fitted dose curve at least 0.9, where 1 is the maximum; inconclusive = response in the unintended direction; inactive = score below 0.9.
Form entry, call: pick from active, inactive

>>> qualitative_label("CC1(C)C(C=C(Cl)c2ccc(Cl)cc2)C1C(=O)OC(C#N)c1ccc(F)c(Oc2ccccc2)c1 (stereo unspecified)")
"inactive"
>>> qualitative_label("[Cd+2].[Cl-].[Cl-]")
"active"
>>> qualitative_label("Cn1nc(C(F)(F)F)c(CS(=O)(=O)C2=NOC(C)(C)C2)c1OC(F)F")
"active"
>>> qualitative_label("C#CCN(C)[C@H](C)Cc1ccccc1")
"inactive"

Data request: Dear all, I need the recorded test outcome for CC1(C)[C@H](C=C(Cl)Cl)[C@H]1C(=O)OCc1c(F)c(F)cc(F)c1F , thank you.
Data returned: active

Data request: Called result for Brc1ccc(Oc2ccc(Br)cc2Br)c(Br)c1
Data returned: active

---

- protocol_text: CCTE_Shafer_MEA_dev_burst_rate: CCTE's Neural Network Formation Assay for Burst Rate, Shafer Lab (AID 2284042)
The source made the active and inactive calls. The calls were made as follows: active = hit-call score of the fitted dose curve at least 0.9, where 1 is the maximum; inactive = score below 0.9.
Give your call using only these classes: y (active), n (inactive)

Reference set (6 entries):
>>> qualitative_label("CC1(C)[C@H](C(=O)O[C@H](C#N)c2cccc(Oc3ccccc3)c2)[C@@H]1C=C(Br)Br")
"y"
>>> qualitative_label("C[n+]1ccc(-c2ccccc2)cc1")
"n"
>>> qualitative_label("Brc1ccc(Oc2ccc(Br)cc2Br)c(Br)c1")
"n"
>>> qualitative_label("Cc1ccc(OP(=O)(Oc2ccc(C)cc2)Oc2ccc(C)cc2)cc1 (tested in a mixture with another compound)")
"n"
>>> qualitative_label("CC1CCCC1.[C-]#[O+].[C-]#[O+].[C-]#[O+].[Mn]")
"n"
>>> qualitative_label("C[C@H](N)Cc1ccccc1")
"n"

Data request: Query: recorded result category for CNC(=N[N+](=O)[O-])NCC1CCOC1 (stereo unspecified) in this test
Data returned: n

Data request: Hi team, can someone confirm the assay call for CC(=O)[O-].CC(=O)[O-].O.O.O.[Pb+2] ?
Data returned: n

Data request: How was CC1(C)[C@H](C=C(Cl)Cl)[C@H]1C(=O)OCc1c(F)c(F)cc(F)c1F classified in this test?
Data returned: y

Data request: Could you kindly confirm the outcome this assay logged for CC1(C)[C@H](C=C(Cl)Cl)[C@@H]1C(=O)O[C@@H](C#N)c1cccc(Oc2ccccc2)c1 ?
Data returned: n

Data request: Any idea what this test logged for c1ccc2c(c1)cc1ccc3cccc4ccc2c1c34 ?
Data returned: n
